Target sequence: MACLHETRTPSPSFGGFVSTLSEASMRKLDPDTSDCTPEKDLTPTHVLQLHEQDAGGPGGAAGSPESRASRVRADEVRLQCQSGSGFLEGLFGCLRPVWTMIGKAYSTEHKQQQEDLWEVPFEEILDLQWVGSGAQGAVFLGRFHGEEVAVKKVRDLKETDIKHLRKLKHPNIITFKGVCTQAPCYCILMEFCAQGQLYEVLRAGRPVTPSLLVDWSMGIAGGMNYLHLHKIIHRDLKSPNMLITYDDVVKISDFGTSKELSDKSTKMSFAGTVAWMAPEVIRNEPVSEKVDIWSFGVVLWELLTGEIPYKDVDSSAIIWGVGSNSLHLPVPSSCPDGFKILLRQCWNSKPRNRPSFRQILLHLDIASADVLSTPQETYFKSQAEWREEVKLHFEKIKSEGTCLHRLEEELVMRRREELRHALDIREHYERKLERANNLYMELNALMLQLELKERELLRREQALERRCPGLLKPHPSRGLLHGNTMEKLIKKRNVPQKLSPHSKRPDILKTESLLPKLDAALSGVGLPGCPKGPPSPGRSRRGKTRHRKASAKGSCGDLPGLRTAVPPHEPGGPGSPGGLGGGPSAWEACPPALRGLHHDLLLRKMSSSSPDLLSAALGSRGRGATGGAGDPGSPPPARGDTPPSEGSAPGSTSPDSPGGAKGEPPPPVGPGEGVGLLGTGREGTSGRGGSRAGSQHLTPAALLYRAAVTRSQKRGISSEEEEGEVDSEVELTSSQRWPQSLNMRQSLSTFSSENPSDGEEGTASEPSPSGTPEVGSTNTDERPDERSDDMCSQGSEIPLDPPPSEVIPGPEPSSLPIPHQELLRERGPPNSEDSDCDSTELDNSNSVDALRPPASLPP
endpoint_label: Kd

If you can, please state the reported Kd value of `CC(C)(C)c1cc(NC(=O)Nc2ccc(Oc3ncnc4[nH]ncc34)c(F)c2)no1` . > 10 µM

Where do the numbers come from? From paper PMC4620497.
